- EXPERIMENT: Selectivity ratio of IC50 for human THP-1 cells to MIC for Clostridium difficile ATCC 43255
- Format: toxicity
QUANTITY NAME: selectivity ratio

                                    compound  qualifying_sign  value_observed
 0  Oc1ccc(-c2nc(-c3ccc(OC4CCCCC4Br)cc3)no2)cc1 (configuration not stated)                =               4
 1  O=[N+]([O-])c1c[nH]c(-c2nc(-c3ccc(OC4CCCC4)cc3)no2)n1                >             512
 2  Oc1ccc(-c2noc(-c3ccc(OC4CCCC4)cc3)n2)cc1                =               2
 3  Oc1ccc(-c2nc(-c3ccc(Oc4ccccc4)cc3)no2)cc1                =               8
 4  O=[N+]([O-])c1ccccc1Oc1ccc(-c2noc(-c3ccc(O)cc3)n2)cc1                =               3
 5  O=[N+]([O-])c1c[nH]nc1-c1nc(-c2ccc(Oc3ccc(I)cc3)cc2)no1                =              25
 6  Oc1ccc(-c2nc(-c3ccc(Oc4cccc(I)c4)cc3)no2)cc1                =               4
 7  Oc1c(F)cc(-c2nc(-c3ccc(Oc4ccc(C(F)(F)F)cc4)cc3)no2)cc1F                =               4
 8  Cl.NCc1ccc(-c2nc(-c3ccc(Oc4ccc(C(F)(F)F)cc4)cc3)no2)cc1                =               1
 9  O=[N+]([O-])c1c[nH]c(-c2nc(-c3ccc(OC4CCC4)cc3)no2)n1                >             512
10  FC(F)(F)c1ccc(Oc2ccc(-c3noc(-c4ccc5[nH]ccc5c4)n3)cc2)cc1                =              17
11  O=[N+]([O-])c1c[nH]nc1-c1nc(-c2ccc(Oc3ccc(C(F)(F)F)cc3)cc2)no1                =               5
12  Oc1ccc(-c2nc(-c3ccc(Oc4ccc(C(F)(F)F)cc4)cc3)no2)cc1F                =               1
13  O=[N+]([O-])c1c[nH]nc1-c1nc(-c2ccc3oc4ccccc4c3c2)no1                =               2
14  Oc1ccc(-c2nc(-c3ccc(Oc4ccc(C(F)(F)F)cc4)cc3)no2)cc1                =               9
15  O=[N+]([O-])c1c[nH]nc1-c1nc(-c2ccc(OC(F)(F)F)cc2)no1                =               6
16  O=[N+]([O-])c1cc(-c2nc(-c3ccc(Oc4ccc(C(F)(F)F)cc4)cc3)no2)cnc1O                =              19
